SYSTEM_UNDER_TEST: human IL-17RA on cells (human PBMC; human foreskin fibroblasts) (human, UniProt Q96F46 33-866)
RUN_DESCRIPTION: cell-based or functional assay
# % Inhib. of IL-5 production (TSLP treated human PBMC + IL-2 + IL-25), Expt. 3 per entry
Hi! Could you send only the number? It should be in %, unit omitted.

These recorded examples may help you get a feel for the data.
{"BINDER": "2.225.1 (antibody, V domains shown) VH: QVQLVQSGVEVKKPGASVKVSCKASGYTLTRYGISWVRQAPGQGLEWMGWISAYNGNTNYAQKLQGRVTMTTDTSTSTAYMELRSLRSDDTAVYYCARRDYDILTGYYNGFDPWGQGTLVTVSS VL: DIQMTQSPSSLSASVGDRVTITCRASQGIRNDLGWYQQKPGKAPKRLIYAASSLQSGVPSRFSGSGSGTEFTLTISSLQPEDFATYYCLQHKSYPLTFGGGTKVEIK", "RESULT": 0}
{"BINDER": "2.67.1 (antibody, V domains shown) VH: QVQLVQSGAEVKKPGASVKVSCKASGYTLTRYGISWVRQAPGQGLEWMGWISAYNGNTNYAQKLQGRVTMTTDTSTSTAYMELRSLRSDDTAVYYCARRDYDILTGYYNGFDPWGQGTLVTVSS VL: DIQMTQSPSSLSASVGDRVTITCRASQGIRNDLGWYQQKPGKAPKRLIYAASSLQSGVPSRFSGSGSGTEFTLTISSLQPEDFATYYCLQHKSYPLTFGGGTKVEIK", "RESULT": 3}

Lab note: next binder to report on.
Given the binder 4.16.1 (antibody, IgG2, V domains shown) VH: QVQLVQSGAEVKKPGASVKVSCKASGYTLTSYGISWVRQAPGQGLEWMGWISAYSGNTKYAQKFQGRVTMTTDTSTSTAYMELRSLRSDDTAVYYCARRQLALDYWGQGTLVTVSS VL: EIVMTQSPATLSVSPGERATLSCRASQSISSNLAWYQQKPGQAPRLLIYGASTRATGIPARFSDNGSGTEFTLTISSLQSEDFAVYFCQQYDTWPLTFGGGTKVEIK , what is its reported % Inhib. of IL-5 production (TSLP treated human PBMC + IL-2 + IL-25), Expt. 3?
100
